Tested on: BT-549 breast
Assay: NCI tumour cell line growth inhibition, 48 h
Measured TGI of individual entries

{"columns": ["MOLECULE", "VALUE"],
 "data": [
  ["C=C(C(=O)O[C@H]1C/C(C)=C/CC/C(CO)=C/[C@H]2C(=O)OC(=C)[C@H]12)C(O)CO (some centres undefined)", "30.2 µM"],
  ["CCCCC(SC(=S)N1CCCC1)C(=O)Nc1nc(CC(=O)OCC)cs1 (centres undefined)", "> 100 µM"]
]}

Output TGI of `O=C1COc2cc(N3CCN(c4cccc(C(F)(F)F)c4)CC3)ccc2N1`
> 100 µM

Output TGI of `NCCCN(CCCCN(CCCN)C(=O)OCc1ccccc1)C(=O)OCc1ccccc1`
> 100 µM

Output TGI of `C1=NCCNCCNCCN=Cc2ccc(cc2)OCc2cccc(n2)COc2ccc1cc2`
> 100 µM

Output TGI of Cc1ccc(S(=O)(=O)NC(=O)NC(Cc2ccc(O)cc2)C(=O)O)cc1 (centres undefined)
> 100 µM

Output TGI of `COc1cc2ccc(C(=O)NCCCNC(=O)c3ccc4cc(OC)c(OC)cc4c3)cc2cc1OC`
> 100 µM

====

Tested on: SK-OV-3 ovarian
Experiment: NCI tumour cell line growth inhibition, 48 h; in the data active means GI50 below about 0.43 µM; inactive means the rest
Your reply should match one of these outcome classes. yes = active, no = inactive

Identify the outcome logged in this assay for the compound shown: CC1=CC2C(C(O)CC3(C)C2CC(C)C32OCOC23COCO3)C2(C)C/C(=C/O)C(=O)C=C12 (stereo not given)
no

Identify the outcome logged in this assay for the compound shown: `c1ccc(-c2nn3c(c2-c2ccnc4cc(OCCN5CCOCC5)ccc24)CCC3)nc1`
no

Identify the outcome logged in this assay for the compound shown: `COc1ccc2c(c1)nc(NNC(=O)c1cnccn1)c1cccn12`
yes

Identify the outcome logged in this assay for the compound shown: `CN1CCN(Cc2c[nH]c3c2C(=O)c2c(c(O)c4ccccc4c2O)C3=O)CC1`
no

Identify the outcome logged in this assay for the compound shown: `CCC(=O)N1C/C(=C/c2ccc(Cl)cc2)C(=O)/C(=C/c2ccc(Cl)cc2)C1`
no

====

Measured TGI of individual entries
Test system: HOP-62 NSCLC
Test: NCI tumour cell line growth inhibition, 48 h
Expressed in µM, but write only the number.

Take a look at these entries with their results.
{"columns": ["SMILES_ENTRY", "ENDPOINT_LABEL", "VALUE"],
 "data": [
  ["O=[N+]([O-])/C=C/c1c(Cl)cccc1Cl", "TGI", 13],
  ["FC(F)(F)c1cc(N(C2c3ccccc3C=Cc3ccccc32)P(Cl)Cl)cc(C(F)(F)F)c1", "TGI", 37.3],
  ["CN(C)c1ccc(Nc2c3ccccc3nc3ccccc23)cc1", "TGI", 2.59]
]}

# return TGI of `Cc1ccc(/C=C/c2c(C(=O)/C=C/c3ccccc3)c(C)nc3ccccc23)cc1` (system: HOP-62 NSCLC)
3.49

# return TGI of `CCCC[C@@H](C)/C=C1\CN2CCC[C@H]2[C@@](C)(OCc2ccccc2)[C@@H]1O` (system: HOP-62 NSCLC)
18.4

====

System: RXF 393 renal
Assay: NCI tumour cell line growth inhibition, 48 h
Measured TGI of individual entries
Expressed in µM, but write only the number.

Take a look at these entries with their results.
{"columns": ["COMPOUND", "TARGET_DESC", "VALUE_UNITS", "TGI"],
 "data": [
  ["C#C[C@]1(O)CC[C@H]2[C@@H]3CC=C4c5sc(Nc6cc(F)ccc6F)nc5CC[C@]4(C)[C@H]3CC[C@@]21C", "RXF 393 renal", "µM", 0.728],
  ["O=C1NC(=O)c2ccccc2/C1=C/c1ccc2c(c1)OCO2", "RXF 393 renal", "µM", 17.4],
  ["CC(C)(C)OC(=O)NC12C3C4C1C1C2C3C41NC(=O)OC(C)(C)C (centres undefined)", "RXF 393 renal", "µM", 84.4],
  ["COC(C)(C)[C@@H](O)[C@H](O)C[C@H](C)C1=C2CC[C@@H]3[C@@]4(C)CC[C@@H](OC(C)=O)C(C)(C)[C@@H]4C[C@@H](OC4OC(COC(C)=O)C(O)C(O)C4O)[C@@]3(C)[C@]2(C)CC1 (some centres undefined)", "RXF 393 renal", "µM", 19.5],
  ["CCOC(=O)N1C/C(=C\\c2ccccc2)C(=O)/C(=C/c2ccccc2)C1", "RXF 393 renal", "µM", 10.3]
]}

Output TGI of `O=C(CCN1CCOCC1)/C(=C/c1ccccc1)c1ccccc1`
3.4
